assay: chemical genetic growth profiling, strain panel (AID 1159580);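 also: tested at 20 µM; growth read once vehicle control cultures reached saturation at 30 °C; 1 = growth at the plate median or of vehicle wells; lower values mean less growth of the strain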; settings: S. cerevisiae deletion strains, growth OD, locus YNL307C, strain MCK1
Among all 5,500 compounds or so, about 2,000 (36%) were called active. Inconclusive results (about 18%) are left out. Rule as the data show it: active = normalized growth mostly below about 0.91 (no sharp cut-off); inconclusive = no clear call, values can overlap the other calls; inactive = mostly above about 0.92. The list shows a part of the results.
# output must be one of active, inactive

CC(CN1c2ccccc2Sc2ccccc21)N(C)C (centres undefined) | inactive
Cc1cc(=O)oc2c(O)c(O)ccc12 | inactive
COc1cc([C@H]2Oc3cc([C@H]4Oc5cc(O)cc(O)c5C(=O)[C@@H]4O)ccc3O[C@@H]2CO)ccc1O | inactive
CC(=O)OCC(=O)[C@@]1(O)[C@H](OC(C)=O)CC2C3CCC4=CC(=O)C=C[C@]4(C)[C@@]3(F)[C@@H](O)C[C@@]21C (some centres undefined) | inactive
NNCCc1ccccc1 | inactive
O=c1cc(-c2cc(O)c(O)c(O)c2)oc2cc(O)cc(O)c12 | inactive
CNCCCN1c2ccccc2CCc2ccccc21 | inactive
c1ccc2c(c1)CN1CCCC1=N2 | inactive

Identify the outcome logged in this assay for the compound shown: CCCC(CCC)C(=O)O
inactive

Identify the outcome logged in this assay for the compound shown: CCCCCC1C(=O)CCC1CC(=O)O (centres undefined)
inactive

Identify the outcome logged in this assay for the compound shown: CC(CN(C)C)CN1c2ccccc2CCc2ccccc21 (centres undefined)
inactive

Identify the outcome logged in this assay for the compound shown: CO[C@]12C[C@@H](COC(=O)c3cncc(Br)c3)CN(C)[C@@H]1Cc1cn(C)c3cccc2c13
inactive

Identify the outcome logged in this assay for the compound shown: CCN(CC)C(C)CN1c2ccccc2Sc2ccccc21 (centres undefined)
active

Identify the outcome logged in this assay for the compound shown: CC(CN1c2ccccc2Sc2cccnc21)N(C)C (centres undefined)
inactive

====

The following molecules are listed with their measured normalized growth values.
test: chemical genetic growth profiling, strain panel (AID 1159580);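 also: tested at 20 µM; growth read once vehicle control cultures reached saturation at 30 °C; 1 = growth at the plate median or of vehicle wells; lower values mean less growth of the strain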; details: S. cerevisiae deletion strains, growth OD, locus YPL240C, strain hsp82, active compounds read low
The whole screen tested about 5,500 compounds, of which about 2,000 (36%) were called active. About 18% were inconclusive and are not listed. This is one part of the list.
Give the figure by itself; no unit, no explanation.

CCCC(C(=O)OCCN(CC)CC)(c1ccccc1)c1ccccc1 | 0.998
C=C1C2CCC3(C)C(c4ccoc4)OC(=O)CC13OC1CC(OC(C)=O)C(C)(C)C(CC(=O)OC)C12C (stereo not drawn) | 1.02

Could you now look at the following molecule, please?
Requested field: normalized growth. Item: CCC(=O)Nc1ccc(Cl)c(Cl)c1
0.968

====

assay: chemical genetic growth profiling, strain panel (AID 1159580);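 also: tested at 20 µM; growth read once vehicle control cultures reached saturation at 30 °C; 1 = growth at the plate median or of vehicle wells; lower values mean less growth of the strain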; settings: S. cerevisiae deletion strains, growth OD, locus YNL183C, strain NPR1, active compounds read low
Hit rate of the full screen: of about 5,500 compounds, about 2,000 (36%) were called active. Inconclusive results (about 18%) are left out. The list shows a part of the results.
property label: normalized growth
Give the figure by itself; no unit, no explanation.

Known results for compounds:
COc1c2ccccc2nc2occc12 | 0.865
OC[C@H]1OC([S-])[C@H](O)[C@@H](O)[C@@H]1O.[Au+] (stereo partly specified) | 1.02
CN(C)CCC(c1ccc(Br)cc1)c1ccccn1 (stereo unspecified) | 0.942
O=C1/C(=C/c2cccs2)COc2ccccc21 | 0.763
CCCC(CCC)C(=O)O | 0.931

Requested field: normalized growth. Item: N[C@@H]1[C@@H](O)[C@H](O)[C@@H](CO)O[C@H]1O
0.962
